target: HLA-A*02:01; assay: IEDB peptide-MHC binding, purified MHC/competitive/radioactivity; filed as Kd, often an IC50 or EC50 that approximates it; bounds were set here for any values at or beyond the usual limits of such assays; conditions: source organism: Toxoplasma gondii
Please go through the items and note down their Kd.
Numbers only, in nM.

Consider the reported Kd for these sequences:
residues	Kd (nM)
FLSLSLLVI	736
FLLGLLVHV	6.4
FMIAFISCFA	32
GLAAAVVAV	9.6
ITMGSLFFV	0.16

Provide Kd values for the following items, in order.
1. FMIVSISLV
2. FVIFACNFV

Output:
[16, 34]

Task: Tell us which Kd value is on record for "FLTDYIPGA"
Output: 0.7

====

For each of the sequences below, state its log10 Kd.
target: HLA-A*02:06; assay: IEDB peptide-MHC binding, purified MHC/competitive/radioactivity; filed as Kd, often an IC50 or EC50 that approximates it; bounds were set here for any values at or beyond the usual limits of such assays; conditions: source organism: Toxoplasma gondii
// units: nM (pre-log); metric: Kd; scale: log10

# example entries with known answers
residues	log10 Kd
FVIFACNFV	0.75
FMIVSISLV	0.79
FMIAFISCFA	2.05
GLAAAVVAV	1.74
FLLGLLVHV	1.00

Return reported log10 Kd values for all items listed beneath this line.
1. ITMGSLFFV
2. FLTDYIPGA

Output:
[-0.59, 0.08]

====

target: HLA-A*02:02; experiment: IEDB peptide-MHC binding, purified MHC/competitive/radioactivity; filed as Kd, often an IC50 or EC50 that approximates it; bounds were set here for any values at or beyond the usual limits of such assays; conditions: source organism: Toxoplasma gondii
Threshold 0.03 µM. Kd below it: MET. Kd at it or above: NOT MET.

Some solved entries appear below for comparison.
residues	cat
GLAAAVVAV	NOT MET
ITMGSLFFV	MET
FVIFACNFV	MET
FLLGLLVHV	NOT MET
FLTDYIPGA	MET
FMIVSISLV	MET

Task: Here's an entry: "FLSLSLLVI" . Is its Kd below 0.03 µM?
Output: NOT MET

Task: Does the reported Kd of the following sequence sit strictly below 0.03 µM? "FMIAFISCFA"
Output: NOT MET

====

target: HLA-A*02:03; test: IEDB peptide-MHC binding, purified MHC/competitive/radioactivity; filed as Kd, often an IC50 or EC50 that approximates it; bounds were set here for any values at or beyond the usual limits of such assays; details: source organism: Toxoplasma gondii
pKd: −log10 of the molar value.
Mark Condition met for reported pKd of 8 or greater; mark Condition not met for anything smaller.

// below: answered sequences
residues	cat
GLAAAVVAV	Condition met
FLSLSLLVI	Condition not met
ITMGSLFFV	Condition met
FMIAFISCFA	Condition not met

Task: Decide: pKd of "FLLGLLVHV" >= 8?
Output: Condition met

Task: Record "FMIVSISLV" ; criterion: pKd no lower than 8. Met?
Output: Condition met
